# System: human PAD4 (Homo sapiens, UniProt Q9UM07)
# Construct: human PAD4 (NM_012387), A2P663, was PCR amplified; His-SUMO (N, cleaved yes)
# Sequence (Q9UM07 2-663): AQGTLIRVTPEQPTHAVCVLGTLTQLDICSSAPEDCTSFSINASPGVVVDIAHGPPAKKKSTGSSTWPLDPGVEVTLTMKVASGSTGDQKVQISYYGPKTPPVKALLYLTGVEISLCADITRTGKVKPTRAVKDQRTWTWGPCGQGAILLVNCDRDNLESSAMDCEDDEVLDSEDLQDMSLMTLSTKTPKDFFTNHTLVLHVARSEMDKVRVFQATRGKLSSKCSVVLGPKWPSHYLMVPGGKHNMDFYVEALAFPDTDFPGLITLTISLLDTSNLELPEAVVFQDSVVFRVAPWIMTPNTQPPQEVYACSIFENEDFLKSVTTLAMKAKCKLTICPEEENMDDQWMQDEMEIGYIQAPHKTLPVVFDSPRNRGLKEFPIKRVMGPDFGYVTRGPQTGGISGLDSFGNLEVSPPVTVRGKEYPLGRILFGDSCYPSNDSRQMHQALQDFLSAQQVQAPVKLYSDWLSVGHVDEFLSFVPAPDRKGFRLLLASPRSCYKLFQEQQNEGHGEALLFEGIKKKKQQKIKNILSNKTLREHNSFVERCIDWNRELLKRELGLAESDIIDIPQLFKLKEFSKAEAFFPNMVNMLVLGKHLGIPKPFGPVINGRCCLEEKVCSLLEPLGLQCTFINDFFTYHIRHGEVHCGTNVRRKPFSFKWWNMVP
# Assay Notes: In vitro PAD4 BAEE biochemical assay
# Measurement Parameters: human PAD4, BAEE substrate; 5 nM PAD4, 2 mM calcium chloride, 3 mM BAEE; geometric mean of multiple experiments
Observed Property: IC50 (nM)

Past entries and their recorded results:
CNC(=O)COc1ccc2cc(-c3nc4cc(C(=O)N5CCC[C@@H](N)C5)cc(OC)n4c3C)n(CC3CC3)c2n1 [Example 622] = 894
COc1cc(C(=O)N2[C@H]3CC[C@@H]2[C@H](N)C3)cc2nc(-c3cc4ccc([C@@H](C)NC(=O)NC5CCOC5)nc4n3CC3CC3)c(C)n12 (stereo partly shown) [Example 231] = 64.2
COc1cc(C(=O)N2[C@@H]3CC[C@H]2[C@@H](N)[C@@H](O)C3)cc2nc(-c3cc4ccc(N(C(F)F)S(C)(=O)=O)nc4n3CC3CC3)c(C)n12 [Example 414] = 5250
COc1cc(C(=O)N2[C@H]3CC[C@@H]2[C@H](N)C3)cc2nc(-c3cc4ccc([C@@H](C)NC(=O)N5CCOC[C@@H]5C(F)(F)F)nc4n3CC3CC3)c(C)n12 [Example 199] = 35.4

1. COc1cc(C(=O)N2[C@H]3CC[C@@H]2[C@H](N)C3)cc2nc(-c3cc4ccc([C@@H](C)NC(=O)C5(O)CC5)nc4n3CC3CC3)c(C)n12 [Example 97]
2. COc1cc(C(=O)N2C[C@H](N)[C@@H](F)C2)cc2nc(-c3cc4ccc(N(C(F)F)S(C)(=O)=O)nc4n3CC3CC3)c(C)n12 [Example 290]
3. COc1cc(C(=O)N2[C@H]3CC[C@@H]2[C@H](N)C3)cc2nc(-c3cc4ccc([C@@H](C)NC(=O)N5CC(C)(C(=O)O)C5)nc4n3CC3CC3)c(C)n12 [Example 230]
4. COc1cc(C(=O)N2CCC[C@@H](N)C2)cc2nc(-c3cc4ccc(-c5ccnc6c5CC(=O)N6)nc4n3CC3CC3)c(C)n12 [Example 600]
5. COC(=O)N[C@H](C)c1ccc2cc(-c3nc4cc(C(=O)N5CCC[C@@H](N)C5)cc(OC)n4c3C)n(CC3CC3)c2n1 [Example 258]
# input Thanks in advance: please rank these 5 entries by IC50, highest to lowest. Hello, could you send the labels back in the order asked? Thank you.
# output 2, 4, 5, 3, 1

A. COc1cc(C(=O)N2[C@H]3CC[C@@H]2[C@H](N)C3)cc2nc(-c3cc4ccc([C@@H](C)NC(=O)c5cnn(C(F)F)c5)nc4n3CC3CC3)c(C)n12 [Example 107]
B. Cc1cc(C(=O)N2CCC[C@@H](N)C2)cc2nc(-c3cc4ccc(N(C(F)F)S(C)(=O)=O)nc4n3CC3CC3)c(C)n12 [Example 426]
C. COc1cc(C(=O)N2[C@H]3CC[C@@H]2[C@H](N)C3)cc2nc(-c3cc4ccc([C@@H](C)NC(=O)c5ccnc(C)c5)nc4n3CC3CC3)c(C)n12 [Example 47]
D. COc1cc(C(=O)N2[C@H]3CC[C@@H]2[C@H](N)[C@H](OC)C3)cc2nc(-c3cc4ccc([C@@H](C)NC(=O)C56CC(F)(C5)C6)nc4n3CC3CC3)c(C)n12 [Example 183]
# input # ascending order, key=IC50 The response must list the labels following the requested ordering.
# output C, A, B, D

---

# System: human PAD4 (Homo sapiens, UniProt Q9UM07)
# Construct: human PAD4 (NM_012387), A2P663, was PCR amplified; His-SUMO (N, cleaved yes)
# Assay Notes: In vitro PAD4 BAEE biochemical assay
# Measurement Parameters: human PAD4, BAEE substrate; 5 nM PAD4, 2 mM calcium chloride, 3 mM BAEE; geometric mean of multiple experiments
Observed Property: IC50 (nM)

Solved cases (10 shown):
COc1cc(C(=O)N2[C@H]3CC[C@@H]2[C@H](N)C3)cc2nc(-c3cc4ccc([C@@H](C)NC(=O)[C@H](C)OC)nc4n3CC3CC3)c(C)n12 [Example 34] = 57.9
COc1cc(C(=O)N2[C@H]3CCC[C@@H]2[C@H](N)C3)cc2nc(-c3cc4ccc(N(C(F)F)S(C)(=O)=O)nc4n3CC3CC3)c(C)n12 [Example 332] = 390
CCc1ccc2cc(-c3nc4cc(C(=O)N5[C@H]6CC[C@@H]5[C@H](N)C6)cc(OC)n4c3C)n(CC(F)F)c2n1 [Example 502] = 258
COCC1(C(=O)N[C@H](C)c2ccc3cc(-c4nc5cc(C(=O)N6[C@H]7CC[C@@H]6[C@H](N)C7)cc(OC)n5c4C)n(CC4CC4)c3n2)CCC1 [Example 29] = 108
COc1cc(C(=O)N2CC[C@H]3C[C@@]3(N)C2)cc2nc(-c3cc4ccc(N(C(F)F)S(C)(=O)=O)nc4n3CC3CC3)c(C)n12 [Example 362] = 248
COc1cc(C(=O)N2[C@H]3CC[C@@H]2[C@H](N)C3)cc2nc(-c3cc4ccc([C@@H](C)NC(=O)C5C(F)(F)C56CC6)nc4n3CC3CC3)c(C)n12 (stereo partly drawn) [Example 53] = 37.2
COc1cc(C(=O)N2[C@H]3CC[C@@H]2[C@H](N)C3)cc2nc(-c3cc4ccc([C@@H](C)N(C)C(=O)c5ccccc5)nc4n3CC3CC3)c(C)n12 [Example 185] = 139
CCc1ccc2cc(-c3nc4cc(C(=O)N5CC[C@@H](OC)[C@@H](N)C5)cc(OC)n4c3C)n(CC3CC3)c2n1 [Example 579] = 412
COc1cc(C(=O)N2[C@H]3CC[C@@H]2[C@H](N)C3)cc2nc(-c3cc4ccc([C@@H](C)NC(=O)C56CC(C#N)(C5)C6)nc4n3CC3CC3)c(C3CC3)n12 [Example 140] = 118
COc1cc(C(=O)N2C[C@@H]3CNCC[C@@H]32)cc2nc(-c3cc4ccc(N(C(F)F)S(C)(=O)=O)nc4n3CC3CC3)c(C)n12 [Example 283] = 11700

P. COc1cc(C(=O)N2[C@H]3CC[C@@H]2[C@H](N)C3)cc2nc(-c3cc4ccc([C@@H](C)NC(=O)Nc5ccc(F)cc5F)nc4n3CC3CC3)c(C)n12 [Example 198]
Q. COc1cc(C(=O)N2[C@H]3CC[C@@H]2[C@H](N)C3)cc2nc(-c3cc4ccc([C@@H](C)NC(=O)[C@@H](C)O)nc4n3CC3CC3)c(C)n12 [Example 91]
# input Field: lower IC50 | Options: P / Q In your reply, give the label of the chosen option.
# output Q
(Q: 43 nM, P: 185 nM)

1. COc1cc(C(=O)N2[C@H]3CC[C@@H]2[C@H](N)C3)cc2nc(-c3cc4ccc(N5CCCC(C(C)C)S5(=O)=O)nc4n3CC3CC3)c(C)n12 (stereo partly drawn) [Example 452]
2. COc1cc(C(=O)N2[C@H]3CC[C@@H]2[C@H](N)C3)cc2nc(-c3cc4ccc([C@@H](C)NC(=O)C5(F)CC5)nc4n3CC3CC3)c(C)n12 [Example 136]
3. COc1cc(C(=O)N2[C@H]3CC[C@@H]2[C@H](N)C3)cc2nc(-c3cc4ccc([C@@H](C)NC(=O)C5CC(O)(C(F)(F)F)C5)nc4n3CC3CC3)c(C)n12 (stereo partly drawn) [Example 45]
# input I would appreciate it if you could sort these 3 molecules by IC50, starting from the smallest number. Respond with the label ranking, as requested.
# output 3, 2, 1

---

# System: human PAD4 (Homo sapiens, UniProt Q9UM07)
# Construct: human PAD4 (NM_012387), A2P663, was PCR amplified; His-SUMO (N, cleaved yes); made in house; host or cells: E. coli BL21(DE3)
# Assay Notes: In vitro PAD4 BAEE biochemical assay
# Measurement Parameters: human PAD4, BAEE substrate; 5 nM PAD4, 2 mM calcium chloride, 3 mM BAEE; geometric mean of multiple experiments
pIC50: −log10 of the molar value.
Observed Property: pIC50

Known pIC50 results, listed for orientation:
COc1cc(C(=O)N2CCC[C@@H](N)C2)cc2nc(-c3cc4ccc([C@@H](C)NC(=O)C5(CO)CC5)nc4n3CC3CC3)c(C)n12 = 7.25
COc1cc(C(=O)N2[C@H]3CC[C@@H]2[C@H](N)C3)cc2nc(-c3cc4ccc([C@@H](C)NC(=O)N(C(C)C)C(C)C)nc4n3CC3CC3)c(C)n12 = 7.25
COc1cc(C(=O)N2[C@H]3CC[C@@H]2[C@H](N)C3)cc2nc(-c3cc4ccc(-c5cccnc5C)nc4n3CC3CC3)c(C)n12 = 6.89
CCOC(=O)CC(C)c1ccc2cc(-c3nc4cc(C(=O)N5[C@H]6CC[C@@H]5[C@H](N)C6)cc(OC)n4c3C)n(CC3CC3)c2n1 (stereo partly shown) = 7.02
COc1cc(C(=O)N2[C@H]3CC[C@@H]2[C@H](N)C3)cc2nc(-c3cc4ccc([C@@H](C)N5CCCC5=O)nc4n3CC3CC3)c(C)n12 = 7.21
COc1cc(C(=O)N2C[C@@H]3CC[C@H]2[C@H](N)C3)cc2nc(-c3cc4ccc(N(C(F)F)S(C)(=O)=O)nc4n3CC3CC3)c(C)n12 = 4.74
COc1cc(C(=O)N2[C@H]3CC[C@@H]2[C@H](N)C3)cc2nc(-c3cc4ccc(N(C(F)F)S(C)(=O)=O)nc4n3CC3CC3)c(C3CC3)n12 = 6.81

P. CC[C@@](C)(O)c1ccc2cc(-c3nc4cc(C(=O)N5[C@H]6CC[C@@H]5[C@H](N)C6)cc(OC)n4c3C)n(CC3CC3)c2n1
Q. COc1cc(C(=O)N2[C@@H]3CC[C@H]2C[C@@H](N)C3)cc2nc(-c3cc4ccc(N(C(F)F)S(C)(=O)=O)nc4n3CC3CC3)c(C)n12
R. COc1cc(C(=O)N[C@H]2CNCC[C@H]2C)cc2nc(-c3cc4ccc(N(C(F)F)S(C)(=O)=O)nc4n3CC3CC3)c(C)n12
# input Sort the compounds on pIC50; start with the lowest figure. List the labels in the requested order.
# output R, Q, P
